# protocolDescription: Whole blood concentrations in mice after IP dosing (LC-MS/MS)
# Type: in vivo, mouse
# measurementParameters: mouse, whole blood, intraperitoneal, 2 mg/kg, 2 mg/kg IP QD × 3 days; Day 2; 6.00 hrs; animals 7, 8, 9; read-out: Formula II Concentrations in Mouse Whole Blood, individual animals
valueType: concentration at 6 h (ng/mL)
Numbers only here, please. The scale is ng/mL.

Task: Give the measured concentration at 6 h for "CO[C@H]1C[C@@H]2CC[C@@H](C)[C@@](O)(O2)C(=O)C(=O)N2CCCC[C@H]2C(=O)O[C@H]([C@H](C)C[C@H]2C[C@H]3C[C@@H]2C[C@@H]3O)CC(=O)[C@H](C)/C=C(\C)[C@@H](O)[C@@H](OC)C(=O)[C@H](C)C[C@H](C)/C=C/C=C/C=C/1C"
Output: 553
